# systemTested: Sigma non-opioid intracellular receptor 1 (Homo sapiens, UniProt Q99720)
# Sequence (Q99720 whole entry): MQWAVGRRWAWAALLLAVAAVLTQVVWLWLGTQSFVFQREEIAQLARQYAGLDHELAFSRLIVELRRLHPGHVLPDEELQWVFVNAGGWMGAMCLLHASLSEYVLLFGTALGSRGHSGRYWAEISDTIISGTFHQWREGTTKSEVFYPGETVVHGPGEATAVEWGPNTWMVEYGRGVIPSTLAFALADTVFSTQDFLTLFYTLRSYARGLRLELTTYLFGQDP
# experimentNotes: Binding affinity for Sigma receptor type 1,using [3H](+)-pentazocine as radioligand
pKi: −log10 of the molar value.
Would you mind labelling by pKi? At or over 9 is Satisfied, under is Not satisfied.

molecule	systemTested	classAssignment
CN(CCCCC(c1ccccc1)c1ccccc1)CCc1ccccc1	Sigma non-opioid intracellular receptor 1 (Homo sapiens, UniProt Q99720)	Satisfied
CC1CCN(CCCCCc2ccccc2)CC1	Sigma non-opioid intracellular receptor 1 (Homo sapiens, UniProt Q99720)	Satisfied
CN1CCN(CC/C=C/c2ccccc2)CC1	Sigma non-opioid intracellular receptor 1 (Homo sapiens, UniProt Q99720)	Not satisfied
CCN(CC)CCCCC(O)(c1ccccc1)c1ccccc1	Sigma non-opioid intracellular receptor 1 (Homo sapiens, UniProt Q99720)	Not satisfied
CC1CCN(CCC=C(c2ccccc2)c2ccccc2)CC1	Sigma non-opioid intracellular receptor 1 (Homo sapiens, UniProt Q99720)	Not satisfied
CC1CCN(CCCCC(c2ccccc2)c2ccccc2)CC1	Sigma non-opioid intracellular receptor 1 (Homo sapiens, UniProt Q99720)	Satisfied
CN1CCN(CCCCc2ccccc2)CC1	Sigma non-opioid intracellular receptor 1 (Homo sapiens, UniProt Q99720)	Not satisfied
CCN(CC)CCOC(=O)C(O)(c1ccccc1)c1ccccc1 [BENACTYZINE]	Sigma non-opioid intracellular receptor 1 (Homo sapiens, UniProt Q99720)	Not satisfied
CN1CCN(CC/C=C\c2ccccc2)CC1	Sigma non-opioid intracellular receptor 1 (Homo sapiens, UniProt Q99720)	Not satisfied

----------
# systemTested: Sigma non-opioid intracellular receptor 1 (Homo sapiens, UniProt Q99720)
# experimentNotes: Selectivity for sigma 2 compared to sigma 1 receptor
quantityMeasured: Selectivity

sampleSmiles	quantityMeasured	endpointValue
CC1CCN(CCC=C2c3ccccc3Sc3ccccc32)CC1	Selectivity	33
CN1CCN(CC/C=C/c2ccccc2)CC1	Selectivity	45
CN1CCN(CCCCc2ccccc2)CC1	Selectivity	45
CCN(CC)CCCCC(O)(c1ccccc1)c1ccccc1	Selectivity	67
CC1CCN(CCC=C(c2ccccc2)c2ccccc2)CC1	Selectivity	15
CN(CCCC=C(c1ccccc1)c1ccccc1)CCc1ccccc1	Selectivity	46
CC1CCN(CCCCC(c2ccccc2)c2ccccc2)CC1	Selectivity	189
CCN(CC)CCCCC(c1ccccc1)c1ccccc1	Selectivity	36
CC1CCN(CCCC(c2ccccc2)c2ccccc2)CC1	Selectivity	25
CN(CCCCC(c1ccccc1)c1ccccc1)CCc1ccccc1	Selectivity	67
CN1CCN(CC/C=C\c2ccccc2)CC1	Selectivity	88

----------
# systemTested: Sigma 2 receptor
# experimentNotes: Binding affinity of compound was measured towards Sigma receptor type 2 by using [3H]ditolylguanidine as radioligand
pKi: −log10 of the molar value.
Quick rule for you: pKi at 7 or higher means true (1), lower means false (0).

sampleSmiles	classAssignment
CN1CCN(CC/C=C/c2ccccc2)CC1	false (0)
CN1CCN(CCCCc2ccccc2)CC1	false (0)
CCN(CC)CCCCC(O)(c1ccccc1)c1ccccc1	false (0)
CC1CCN(CCC=C2c3ccccc3Sc3ccccc32)CC1	true (1)
CCN(CC)CCCCC(c1ccccc1)c1ccccc1	true (1)
CN1CCN(CC/C=C\c2ccccc2)CC1	false (0)
CN(CCCCC(c1ccccc1)c1ccccc1)CCc1ccccc1	true (1)
CC1CCN(CCCC=C(c2ccccc2)c2ccccc2)CC1	true (1)

----------
# experimentNotes: Binding affinity for Sigma receptor type 1,using [3H](+)-pentazocine as radioligand
pKi: −log10 of the molar value.

sampleSmiles	pKi
CN(CCCCCc1ccccc1)CCc1ccccc1	9.60

----------
# systemTested: Sigma 2 receptor
# experimentNotes: Binding affinity of compound was measured towards Sigma receptor type 2 by using [3H]ditolylguanidine as radioligand
pKi: −log10 of the molar value.

sampleSmiles	pKi
CN(CCCC=C(c1ccccc1)c1ccccc1)CCc1ccccc1	7.39
CCCC(C(=O)OCCN(CC)CC)(c1ccccc1)c1ccccc1	5.96
CC1CCN(CCCCC(c2ccccc2)c2ccccc2)CC1	7.77
c1ccc(CCNCCCCC(c2ccccc2)c2ccccc2)cc1	7.00
CC1CCN(CCCC(c2ccccc2)c2ccccc2)CC1	7.55
CC1CCN(CCC=C(c2ccccc2)c2ccccc2)CC1	7.55

----------
# systemTested: Sigma non-opioid intracellular receptor 1 (Homo sapiens)
# experimentNotes: Binding affinity for Sigma receptor type 1,using [3H](+)-pentazocine as radioligand

sampleSmiles	Ki
c1ccc(CCNCCCCC(c2ccccc2)c2ccccc2)cc1	0.66 nM
CC1CCN(CCC=C2c3ccccc3Sc3ccccc32)CC1	0.8 nM
CC1CCN(CCCC(c2ccccc2)c2ccccc2)CC1	1.1 nM
CCN(CC)CCCCC(c1ccccc1)c1ccccc1	1.4 nM
CN(CCCC=C(c1ccccc1)c1ccccc1)CCc1ccccc1	0.89 nM

Reference source: ChEMBL document CHEMBL1147560
